These measurements were taken from patent US20120178738A1.

Target: human 5HT7 receptors (Homo sapiens, UniProt P34969)
Construct: expressed in transfected cells; host or cells: Chinese hamster ovary cells (membranes)
Sequence (P34969 whole entry): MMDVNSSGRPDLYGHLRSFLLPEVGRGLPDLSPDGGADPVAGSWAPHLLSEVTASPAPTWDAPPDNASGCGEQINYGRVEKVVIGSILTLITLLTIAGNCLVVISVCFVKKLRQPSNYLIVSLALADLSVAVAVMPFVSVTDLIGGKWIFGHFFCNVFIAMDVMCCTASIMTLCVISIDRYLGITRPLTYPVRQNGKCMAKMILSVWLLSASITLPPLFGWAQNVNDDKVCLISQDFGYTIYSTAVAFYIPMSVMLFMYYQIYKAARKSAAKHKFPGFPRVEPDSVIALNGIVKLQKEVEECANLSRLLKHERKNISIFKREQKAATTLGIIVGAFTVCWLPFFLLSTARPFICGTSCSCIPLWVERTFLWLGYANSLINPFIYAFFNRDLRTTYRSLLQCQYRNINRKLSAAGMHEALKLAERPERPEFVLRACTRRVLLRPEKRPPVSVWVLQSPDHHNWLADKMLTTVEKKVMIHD
Test: h5-HT7 receptor radioligand binding ([3H]5-CT)
Conditions: pKi reported on a scale of 1 through 5; read-out: 5HT7 (pKi) (converted)

[
  {
    "compound": "O=C(C[C@H]1CN(C2=Nc3cc(Cl)ccc3Oc3ccccc32)CCN1)N1CCOCC1",
    "Ki": "631 to 1550 nM"
  },
  {
    "compound": "CN(CCO)C(=O)C[C@H]1CN(C2=Nc3cc(Cl)ccc3Oc3ccccc32)CCN1",
    "Ki": "631 to 1550 nM"
  },
  {
    "compound": "O=C(C[C@H]1CN(C2=Nc3cc(Cl)ccc3Oc3ccccc32)CCN1)NCCO",
    "Ki": "631 to 1550 nM"
  },
  {
    "compound": "COC(=O)C[C@H]1CN(C2=Nc3cc(Cl)ccc3Oc3ccccc32)CCN1",
    "Ki": "631 to 1550 nM"
  },
  {
    "compound": "COCCNC(=O)C[C@H]1CN(C2=Nc3cc(Cl)ccc3Oc3ccccc32)CCN1",
    "Ki": "631 to 1550 nM"
  },
  {
    "compound": "CCOC(=O)C[C@H]1CN(C2=Nc3cc(Cl)ccc3Oc3ccccc32)CCN1",
    "Ki": "631 to 1550 nM"
  },
  {
    "compound": "C[C@@H](O)CNC(=O)C[C@H]1CN(C2=Nc3cc(Cl)ccc3Oc3ccccc32)CCN1",
    "Ki": "631 to 1550 nM"
  },
  {
    "compound": "COC(=O)CC1CN(C2=Nc3cc(C(F)(F)F)ccc3Oc3ccccc32)CCN1 (stereo not drawn)",
    "Ki": "3980 to 9770 nM"
  },
  {
    "compound": "CC(C)(C)COC(=O)C[C@H]1CN(C2=Nc3cc(Cl)ccc3Oc3ccccc32)CCN1",
    "Ki": "> 10000 nM"
  }
]
